Cited source for all entries: patent US6841546B2

Test: Mammalian Cytotoxicity Assay (Resazurin)
Assay type: cell-based
Conditions: African green monkey (COS-1) and Chinese hamster (CHO)
READOUT LABEL: IC50 at 24 h

{"columns": ["COMPOUND", "READOUT LABEL", "VAL"],
 "data": [
  ["C[C@H]1c2cccc(O)c2C(=O)C2=C(O)[C@]3(O)C(=O)C(C(N)=O)=C(O)[C@@H](N(C)C)[C@@H]3[C@@H](O)[C@@H]21 [doxycycline]", "IC50 at 24 h", "> 25 µg/mL"],
  ["CN(C)c1ccc(O)c2c1C[C@H]1C[C@H]3[C@H](N(C)C)C(O)=C(C(N)=O)C(=O)[C@@]3(O)C(O)=C1C2=O [minocycline]", "IC50 at 24 h", "> 25 µg/mL"]
]}
